- EXPERIMENT_NOTES: YAP1 pathway inhibitors via CTGF transcript, primary screen, DLD1 colon cancer cells, RT-qPCR, single point (AID 743449);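 further: 0% = neutral control wells and 100% = dasatinib control wells; higher means stronger suppression of CTGF expression like dasatinib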
- CONDITION_SET: DLD1 CTGF mRNA qPCR, 24 h; at 12.5 µM; hits give high values
Hit rate of the full screen: of about 9,900 compounds, about 90 (0.9%) were called active. Another 2% or so got no clear call; they are omitted. This is one part of a sample in which actives are shown more often than they occur.
MEASURE: inhibition (%)

{"SMILES_ENTRY": "COc1ccc(S(=O)(=O)Nc2ccc3c(c2)C(=O)N([C@@H](C)CO)C[C@H](C)[C@@H](CN(C)S(=O)(=O)c2ccc(Cl)cc2)OCCCC[C@@H](C)O3)cc1", "MEASURE": "inhibition", "NUMBER": 50.6}
{"SMILES_ENTRY": "COCCNC(=O)c1cc2c(c(-c3cccc(C4=CCCCC4)c3)n1)[C@@H](CCO)N([S@](=O)C(C)(C)C)C2", "MEASURE": "inhibition", "NUMBER": -10.8}
{"SMILES_ENTRY": "Cc1ccc(S(=O)(=O)Nc2ccc3c(c2)C(=O)N([C@H](C)CO)C[C@@H](C)[C@H](CN(C)S(=O)(=O)c2cccs2)OCCCC[C@@H](C)O3)cc1", "MEASURE": "inhibition", "NUMBER": 57.5}
{"SMILES_ENTRY": "O=C(C[C@H]1C[C@@H]2c3cc(NC(=O)C4CCOCC4)ccc3O[C@@H]2[C@@H](CO)O1)NCCN1CCCCC1", "MEASURE": "inhibition", "NUMBER": 23.7}
{"SMILES_ENTRY": "Cc1ccc(S(=O)(=O)Nc2ccc3c(c2)CC(=O)N([C@@H](C)CO)C[C@H](C)[C@@H](CN(C)S(=O)(=O)c2ccccc2)O3)cc1", "MEASURE": "inhibition", "NUMBER": -31.9}
{"SMILES_ENTRY": "Cc1ccc(S(=O)(=O)Nc2ccc3c(c2)CC(=O)N([C@H](C)CO)C[C@@H](C)[C@@H](CN(C)S(=O)(=O)c2ccccc2)O3)cc1", "MEASURE": "inhibition", "NUMBER": 57.6}
{"SMILES_ENTRY": "Cc1ccc(S(=O)(=O)N[C@@H]2C=C[C@@H](CC(=O)NCc3ccc(Cl)c(Cl)c3)O[C@H]2CO)cc1", "MEASURE": "inhibition", "NUMBER": 31}
{"SMILES_ENTRY": "Cc1ccc(S(=O)(=O)Nc2ccc3c(c2)C(=O)N([C@@H](C)CO)C[C@@H](C)[C@H](CN(C)S(=O)(=O)c2cccs2)OCCCC[C@H](C)O3)cc1", "MEASURE": "inhibition", "NUMBER": -3.15}

====

- EXPERIMENT_NOTES: YAP1 pathway inhibitors via CTGF transcript, primary screen, DLD1 colon cancer cells, RT-qPCR, single point (AID 743449);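 further: 0% = neutral control wells and 100% = dasatinib control wells; higher means stronger suppression of CTGF expression like dasatinib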
- CONDITION_SET: DLD1 CTGF mRNA qPCR, 24 h; at 12.5 µM
Screen size: about 9,900 compounds; about 90 (0.9%) were called active. Another 2% or so got no clear call; they are omitted.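 Rule for the calls: active = mean normalized replicate activity at least 50 and at least half of replicates each reaching 50; inconclusive = only one of the two criteria met; inactive = neither criterion met.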 Many of the other results were omitted from the sample, so actives are more common in it than they were.
Outcome codes: true (active), false (inactive)

{"SMILES_ENTRY": "CNC[C@H]1Oc2c(NC(=O)Nc3cccc4ccccc34)cccc2C(=O)N([C@H](C)CO)C[C@@H]1C", "ASSIGNED_CLASS": "true"}
{"SMILES_ENTRY": "CNC[C@H]1Oc2c(NC(=O)Nc3cccc4ccccc34)cccc2C(=O)N([C@@H](C)CO)C[C@H]1C", "ASSIGNED_CLASS": "false"}
{"SMILES_ENTRY": "C[C@@H]1CN([C@@H](C)CO)C(=O)c2cccc(NC(=O)c3nc4ccccc4s3)c2O[C@@H]1CN(C)C(=O)Nc1ccc2c(c1)OCO2", "ASSIGNED_CLASS": "false"}
{"SMILES_ENTRY": "CC(C)(C)[S@](=O)N1Cc2cc(C(=O)NCCN3CCCC3)nc(-c3cccc(-c4ccc(C#N)cc4)c3)c2[C@@H]1CCO", "ASSIGNED_CLASS": "false"}
{"SMILES_ENTRY": "C[C@H](CO)N1C[C@H](C)[C@H](CN(C)C(=O)Nc2ccc3c(c2)OCO3)Oc2c(NC(=O)c3nc4ccccc4s3)cccc2C1=O", "ASSIGNED_CLASS": "false"}
{"SMILES_ENTRY": "C[C@H]1CN([C@@H](C)CO)C(=O)c2cccc(NC(=O)c3ccc(-c4nccs4)cc3)c2O[C@@H]1CN(C)C(=O)Nc1ccc(C(F)(F)F)cc1", "ASSIGNED_CLASS": "true"}
{"SMILES_ENTRY": "COc1ccc(NC(=O)N(C)C[C@@H]2Oc3c(NC(=O)CCCCCC(=O)Nc4ccccc4N)cccc3C(=O)N([C@@H](C)CO)C[C@H]2C)cc1", "ASSIGNED_CLASS": "false"}
{"SMILES_ENTRY": "C[C@H](CO)N1C[C@H](C)[C@@H](CN(C)C(=O)Nc2ccccc2)OCCCC[C@H](C)Oc2ccc(NC(=O)Nc3ccccc3)cc2C1=O", "ASSIGNED_CLASS": "false"}
